target: T1, human PD-L1 (full-length, expressed on CHO cells) (human, UniProt Q9NZQ7 19-290); assay: flow cytometry, CHO cells expressing huPD-L1, PE anti-human Fc
T1 construct: also called huPD-L1; CD274
T1 sequence (Q9NZQ7 19-290): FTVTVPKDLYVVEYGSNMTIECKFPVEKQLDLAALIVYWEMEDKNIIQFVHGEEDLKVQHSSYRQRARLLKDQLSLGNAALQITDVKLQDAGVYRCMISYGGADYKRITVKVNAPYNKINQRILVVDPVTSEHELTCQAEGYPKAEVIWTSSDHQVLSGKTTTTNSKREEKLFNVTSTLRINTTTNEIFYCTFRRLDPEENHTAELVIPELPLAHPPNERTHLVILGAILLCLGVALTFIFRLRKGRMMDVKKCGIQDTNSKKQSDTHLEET
reported-metric: MFI at 33.3 nM (MFI)

* variant CD80 IgV-Fc V22A/E23D/Q33L/E35D/M47V (Fc fusion, not shown: a dimerising Fc or GST) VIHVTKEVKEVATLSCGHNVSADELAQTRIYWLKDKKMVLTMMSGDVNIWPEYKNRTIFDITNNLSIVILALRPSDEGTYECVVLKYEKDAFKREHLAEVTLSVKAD | 75500
* variant CD80 IgV-Fc Q33R/E35D/K37E/M47V/L85Q (Fc fusion, not shown: a dimerising Fc or GST) VIHVTKEVKEVATLSCGHNVSVEELAQTRIYWRKDKEMVLTMMSGDVNIWPEYKNRTIFDITNNLSIVILALRPSDEGTYECVVQKYEKDAFKREHLAEVTLSVKAD | 44400
* variant CD80 IgV-Fc Q33L/E35D/M47I/T62N/L85Q (Fc fusion, not shown: a dimerising Fc or GST) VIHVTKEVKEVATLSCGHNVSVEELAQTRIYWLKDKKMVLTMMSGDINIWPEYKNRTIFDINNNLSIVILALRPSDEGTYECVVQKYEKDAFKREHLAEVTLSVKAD | 72600
* variant CD80 IgV-Fc Q33L/E35D/M47V/L85Q (Fc fusion, not shown: a dimerising Fc or GST) VIHVTKEVKEVATLSCGHNVSVEELAQTRIYWLKDKKMVLTMMSGDVNIWPEYKNRTIFDITNNLSIVILALRPSDEGTYECVVQKYEKDAFKREHLAEVTLSVKAD | 47400
* variant CD80 IgV-Fc Q33L/E35D/M47V (Fc fusion, not shown: a dimerising Fc or GST) VIHVTKEVKEVATLSCGHNVSVEELAQTRIYWLKDKKMVLTMMSGDVNIWPEYKNRTIFDITNNLSIVILALRPSDEGTYECVVLKYEKDAFKREHLAEVTLSVKAD | 47900

A: variant CD80 IgV-Fc A26E/Q33L/E35D/M47L/L85Q (Fc fusion, not shown: a dimerising Fc or GST) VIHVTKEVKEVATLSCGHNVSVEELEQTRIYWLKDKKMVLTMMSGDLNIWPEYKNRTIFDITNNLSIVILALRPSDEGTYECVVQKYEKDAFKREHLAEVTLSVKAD
B: variant CD80 IgV-Fc E35D/M47L/L85Q (Fc fusion, not shown: a dimerising Fc or GST) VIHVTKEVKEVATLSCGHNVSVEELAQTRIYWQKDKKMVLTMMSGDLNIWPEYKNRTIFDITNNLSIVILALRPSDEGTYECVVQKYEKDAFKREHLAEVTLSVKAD
Task item: Sorting ascending by MFI at 33.3 nM, which comes first: A or B ? # reply format: chosen label
Reply: B
